meta.source: patent US20170267667A1

Experiment: Cytotoxicity for mock-infected MT-4 cells
Format: cell-based
Details: human
So basically: is CC50 under 20 µM? Then label 1. Not under? Then label 0.

{"MOLECULE_SMILES": "CO/N=C(\\Cl)CCC/C=C(\\c1cc(C)c(OC)c(C(=O)SC)c1)c1cc(C)c2onc(OC)c2c1", "GROUP_LABEL": "label 1"}
{"MOLECULE_SMILES": "CON=C(Cl)c1cc(/C(=C\\CCCc2nnc(C)o2)c2ccc(C#N)cc2)cc(C)c1OC", "GROUP_LABEL": "label 0"}
{"MOLECULE_SMILES": "CON=C(F)c1cc(/C(=C\\CCCc2nnc(C)o2)c2cccc(C#N)c2)cc(C)c1OC", "GROUP_LABEL": "label 1"}
{"MOLECULE_SMILES": "CON=C(Cl)c1cc(/C(=C\\CCCc2nc(C)no2)c2cccc(C#N)c2)cc(C)c1OC", "GROUP_LABEL": "label 0"}
{"MOLECULE_SMILES": "CON=C(F)c1cc(/C(=C\\CCCN2CCOC2=O)c2cc(C)c3onc(OC)c3c2)cc(C)c1OC", "GROUP_LABEL": "label 0"}
{"MOLECULE_SMILES": "CON=C(F)c1cc(/C(=C\\CCCc2nnc(C)o2)c2ccc(C#N)cc2)cc(C)c1OC", "GROUP_LABEL": "label 1"}
{"MOLECULE_SMILES": "CON=C(Cl)c1cc(/C(=C\\CCCN2CCOC2=O)c2ccc(C#N)cc2)cc(C)c1OC", "GROUP_LABEL": "label 1"}
{"MOLECULE_SMILES": "CON=C(Cl)c1cc(/C(=C\\CCCc2nc(C)no2)c2cc(C)c3onc(OC)c3c2)cc(C)c1OC", "GROUP_LABEL": "label 0"}

----------
Assay: Cytotoxicity for mock-infected CEM-SS cells
Format: cell-based
Conditions: human
Would you mind classing the entries by CC50? Ranges: lowest (below 5 µM), middle (5 µM to below 20 µM), highest (20 µM or more)

{"MOLECULE_SMILES": "CO/N=C(\\Cl)CCC/C=C(/c1ccc(C#N)cc1)c1cc(C)c(OC)c(C(=O)SC)c1", "GROUP_LABEL": "highest"}
{"MOLECULE_SMILES": "CON=C(Cl)c1cc(/C(=C\\CCCN2CCOC2=O)c2ccc(C#N)cc2)cc(C)c1OC", "GROUP_LABEL": "middle"}
{"MOLECULE_SMILES": "CO/N=C(\\Cl)CCC/C=C(/c1cccc(C#N)c1)c1cc(C)c(OC)c(C(=O)SC)c1", "GROUP_LABEL": "highest"}
{"MOLECULE_SMILES": "CO/N=C(\\Cl)CCC/C=C(\\c1cc(C)c(OC)c(C(=O)SC)c1)c1cc(C)c2oc(=O)n(C)c2c1", "GROUP_LABEL": "middle"}
{"MOLECULE_SMILES": "CON=C(Cl)c1cc(/C(=C\\CCCc2nc(C)no2)c2cc(C)c3onc(OC)c3c2)cc(C)c1OC", "GROUP_LABEL": "middle"}
{"MOLECULE_SMILES": "CON=C(F)c1cc(/C(=C\\CCCc2nc(C)no2)c2cccc(C#N)c2)cc(C)c1OC", "GROUP_LABEL": "lowest"}
{"MOLECULE_SMILES": "CON=C(Cl)c1cc(/C(=C\\CCCc2nnc(C)o2)c2ccc(C#N)cc2)cc(C)c1OC", "GROUP_LABEL": "middle"}
{"MOLECULE_SMILES": "CON=C(Cl)c1cc(/C(=C\\CCCc2nc(C)no2)c2cc(C)c3oc(=O)n(C)c3c2)cc(C)c1OC", "GROUP_LABEL": "lowest"}
